All figures here come from ChEMBL document CHEMBL4304804.

tested on: Bacillus cereus; experiment: Antibacterial activity against Bacillus cereus assessed as reduction in bacterial cell growth incubated for 24 hrs by filter paper assay; type: functional
The source made the active and inactive calls. The rule behind the calls is not given here.
readout.kind: MIC

Before answering, review these 8 worked examples.
CCC(=O)N1CCC2(Cc3cccc(C)c3)c3ccccc3N(Cc3cccc(C)c3)C12 (centres undefined)    31.2 µg/mL
CCCCCCCC(=O)N1CCC2(Cc3cccc(C)c3)c3ccccc3N(Cc3cccc(C)c3)C12 (centres undefined)    62.5 µg/mL
Cc1ccccc1CN1c2ccccc2C2(Cc3ccccc3C)CCN(C(=O)C(F)(F)F)C12 (centres undefined)    inactive
Cc1ccc(S(=O)(=O)N2CCC3(Cc4cccc(C)c4)c4ccccc4N(Cc4cccc(C)c4)C23)cc1 (centres undefined)    125 µg/mL
CCCCCC(=O)N1CCC2(Cc3ccccc3C)c3ccccc3N(Cc3ccccc3C)C12 (centres undefined)    inactive
Cc1cccc(CN2c3ccccc3C3(Cc4cccc(C)c4)CCN(S(=O)(=O)c4ccccc4)C23)c1 (centres undefined)    125 µg/mL
CCCCC(=O)N1CCC2(Cc3cccc(C)c3)c3ccccc3N(Cc3cccc(C)c3)C12 (centres undefined)    250 µg/mL
CN1c2ccccc2C2(O)CCCN(C(=O)c3cccc(F)c3)C12 (centres undefined)    inactive

Below: the item to evaluate.
The observed MIC for CCCC(=O)N1CCCC2(O)c3ccccc3N(C)C12 (centres undefined) when tested with Bacillus cereus stands at inactive
